meta.source: ChEMBL document CHEMBL4251667

target: UniProtKB Q61143; assay: Inhibition of mouse TRPC6 expressed in HEK293 cells assessed as reduction in M085-induced intracellular calcium flux pretreated for 5 mins followed by M085 addition measured after 300 secs by Fluo-8AM dye based FLIPR assay
Sequence (Q61143 whole entry): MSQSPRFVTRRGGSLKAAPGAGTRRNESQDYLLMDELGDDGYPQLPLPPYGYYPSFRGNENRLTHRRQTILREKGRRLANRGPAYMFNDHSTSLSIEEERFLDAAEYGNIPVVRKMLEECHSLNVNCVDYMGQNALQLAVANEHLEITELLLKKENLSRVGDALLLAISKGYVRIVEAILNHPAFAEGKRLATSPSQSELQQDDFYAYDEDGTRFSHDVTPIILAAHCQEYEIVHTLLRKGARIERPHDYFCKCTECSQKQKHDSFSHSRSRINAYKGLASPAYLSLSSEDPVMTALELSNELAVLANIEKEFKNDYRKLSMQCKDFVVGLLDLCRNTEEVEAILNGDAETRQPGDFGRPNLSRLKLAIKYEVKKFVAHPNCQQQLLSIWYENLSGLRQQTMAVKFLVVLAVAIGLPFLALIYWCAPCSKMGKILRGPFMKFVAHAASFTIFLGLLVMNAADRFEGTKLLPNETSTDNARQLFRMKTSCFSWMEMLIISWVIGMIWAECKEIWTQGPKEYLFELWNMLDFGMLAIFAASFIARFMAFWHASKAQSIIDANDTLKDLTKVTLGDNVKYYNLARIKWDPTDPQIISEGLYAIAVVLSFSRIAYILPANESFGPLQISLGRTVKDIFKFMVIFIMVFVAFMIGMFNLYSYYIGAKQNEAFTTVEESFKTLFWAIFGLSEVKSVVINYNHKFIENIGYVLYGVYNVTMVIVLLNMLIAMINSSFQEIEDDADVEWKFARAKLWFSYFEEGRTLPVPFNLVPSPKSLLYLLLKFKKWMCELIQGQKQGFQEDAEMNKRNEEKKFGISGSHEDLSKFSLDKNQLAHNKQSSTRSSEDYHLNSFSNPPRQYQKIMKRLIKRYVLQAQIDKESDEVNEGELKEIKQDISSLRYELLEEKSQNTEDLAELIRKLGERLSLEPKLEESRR
The compounds listed here are annotated with their IC50.
recorded endpoint: IC50 (µM)

1. COc1cc(C(=O)OC[C@H]2O[C@@H](OC/C(C#N)=C/CO)[C@H](O)[C@@H](O)[C@@H]2O)ccc1O : 25.6
2. N#C/C(=C\CO)CO[C@@H]1O[C@H](COC(=O)c2ccc(O)cc2)[C@@H](O)[C@H](O)[C@H]1O : 24.5
